Data origin, for the record: patent US20050209278A1

test.system: MMP-14 (Homo sapiens)
Construct: The catalytic domain enzyme was expressed in E. coli inclusion bodies, solubilized in urea; made in house
method.notes: MMP-14 inhibition (in vitro Ki)
Format: biochemical
details: Table 9; read-out: MMP-14 Ki (IC-50)
pKi: −log10 of the molar value.
assay.metric: pKi

- smiles.data: "COCC#Cc1ccc(C2CCN(S(=O)(=O)C3(C(=O)NO)CCOCC3)CC2)nc1"
  test.system: "MMP-14 (Homo sapiens)"
  inequality.sign: "="
  obs.value: 6.22
- smiles.data: "CCCC(=O)c1ccc(C2CCN(S(=O)(=O)C3(C(=O)NO)CCOCC3)CC2)nc1"
  test.system: "MMP-14 (Homo sapiens)"
  inequality.sign: "="
  obs.value: 5.07
- smiles.data: "CC(C)CCc1cnc(C2CCN(S(=O)(=O)C3(C(=O)NO)CCOCC3)CC2)cn1"
  test.system: "MMP-14 (Homo sapiens)"
  inequality.sign: "<"
  obs.value: 5.00
- smiles.data: "O=C(NO)C1(S(=O)(=O)N2CCC(c3ccc(CCC(F)(F)C(F)(F)F)cn3)CC2)CCN(c2cccnc2)CC1"
  test.system: "MMP-14 (Homo sapiens)"
  inequality.sign: "="
  obs.value: 5.14
- smiles.data: "O=C(NO)C1(S(=O)(=O)N2CCC(c3ccc(CCC(F)(F)C(F)(F)F)cn3)CC2)CCC1"
  test.system: "MMP-14 (Homo sapiens)"
  inequality.sign: "="
  obs.value: 5.89
- smiles.data: "O=C(NO)C1(S(=O)(=O)N2CCC(CCc3ccccc3)CC2)CCOCC1"
  test.system: "MMP-14 (Homo sapiens)"
  inequality.sign: "="
  obs.value: 7.37
- smiles.data: "O=C(NO)C1(S(=O)(=O)N2CCN(c3ccc(-c4nnn(CC5CC5)n4)cc3)CC2)CCOCC1"
  test.system: "MMP-14 (Homo sapiens)"
  inequality.sign: "="
  obs.value: 6.23
- smiles.data: "COCCC(CCOC)(C(=O)NO)S(=O)(=O)N1CCC(c2ccc(CCC(F)(F)C(F)(F)F)cn2)CC1"
  test.system: "MMP-14 (Homo sapiens)"
  inequality.sign: "="
  obs.value: 5.47
- smiles.data: "O=C(NO)C1(S(=O)(=O)N2CCN(c3ccc(-c4ccsc4)c(F)c3)CC2)CCOCC1"
  test.system: "MMP-14 (Homo sapiens)"
  inequality.sign: "="
  obs.value: 6.53
- smiles.data: "CNC(=O)CCCCC1CCN(S(=O)(=O)C2(C(=O)NO)CCOCC2)CC1"
  test.system: "MMP-14 (Homo sapiens)"
  inequality.sign: "="
  obs.value: 5.12
- smiles.data: "CN(CC1CCCCC1)C(=O)CCCC1CCN(S(=O)(=O)C2(C(=O)NO)CCOCC2)CC1"
  test.system: "MMP-14 (Homo sapiens)"
  inequality.sign: "<"
  obs.value: 5.00
- smiles.data: "CC(F)(F)COc1ccc(C2CCN(S(=O)(=O)C3(C(=O)NO)CCOCC3)CC2)nc1"
  test.system: "MMP-14 (Homo sapiens)"
  inequality.sign: "="
  obs.value: 5.07
- smiles.data: "O=C(NO)C1(S(=O)(=O)N2CCC(c3ccc(CCC4CCC4)cn3)CC2)CCOCC1"
  test.system: "MMP-14 (Homo sapiens)"
  inequality.sign: "="
  obs.value: 5.89
- smiles.data: "O=C(NO)C1(S(=O)(=O)N2CCC(c3ccc(CCC(F)(F)C(F)(F)F)cn3)CC2)CCN(c2ccc(Cl)cc2)CC1"
  test.system: "MMP-14 (Homo sapiens)"
  inequality.sign: "<"
  obs.value: 5.00
- smiles.data: "CN(CC1CCCCC1)C(=O)CCCCC1CCN(S(=O)(=O)C2(C(=O)NO)CCOCC2)CC1"
  test.system: "MMP-14 (Homo sapiens)"
  inequality.sign: "<"
  obs.value: 5.00
- smiles.data: "CC(C)(C(=O)NO)S(=O)(=O)N1CCC(c2ccc(CCC(F)(F)C(F)(F)F)cn2)CC1"
  test.system: "MMP-14 (Homo sapiens)"
  inequality.sign: "="
  obs.value: 5.59
- smiles.data: "CCS(=O)(=O)c1ccc(N2CCN(S(=O)(=O)C3(C(=O)NO)CCOCC3)CC2)cc1"
  test.system: "MMP-14 (Homo sapiens)"
  inequality.sign: "<"
  obs.value: 5.00
- smiles.data: "CSCCOc1ccc(C2CCN(S(=O)(=O)C3(C(=O)NO)CCOCC3)CC2)nc1"
  test.system: "MMP-14 (Homo sapiens)"
  inequality.sign: "="
  obs.value: 6.33
- smiles.data: "CCCCc1cnc(C2CCN(S(=O)(=O)C3(C(=O)NO)CCOCC3)CC2)nc1"
  test.system: "MMP-14 (Homo sapiens)"
  inequality.sign: "<"
  obs.value: 5.00
- smiles.data: "O=C(NO)C1(S(=O)(=O)N2CCN(c3ccc(CCC(F)(F)F)cn3)CC2)CCOCC1"
  test.system: "MMP-14 (Homo sapiens)"
  inequality.sign: "="
  obs.value: 6.01
- smiles.data: "O=C(/C=C/C=C/C1CCN(S(=O)(=O)C2(C(=O)NO)CCOCC2)CC1)N1CCc2ccccc21"
  test.system: "MMP-14 (Homo sapiens)"
  inequality.sign: "<"
  obs.value: 5.00
- smiles.data: "O=C(NO)C1(S(=O)(=O)N2CCC(c3ccc(-c4nccs4)cn3)CC2)CCOCC1"
  test.system: "MMP-14 (Homo sapiens)"
  inequality.sign: "<"
  obs.value: 5.00
- smiles.data: "O=C(NO)C1(S(=O)(=O)N2CCC(c3ccc(CCC(F)(F)C(F)(F)F)cn3)CC2)CC=CC1"
  test.system: "MMP-14 (Homo sapiens)"
  inequality.sign: "="
  obs.value: 5.58
- smiles.data: "O=C(NO)C1(S(=O)(=O)N2CCC(c3ccc(CCC(F)(F)C(F)(F)F)cn3)CC2)CCNCC1"
  test.system: "MMP-14 (Homo sapiens)"
  inequality.sign: "<"
  obs.value: 5.00
- smiles.data: "O=C(CCCCC1CCN(S(=O)(=O)C2(C(=O)NO)CCOCC2)CC1)N1CCOCC1"
  test.system: "MMP-14 (Homo sapiens)"
  inequality.sign: "<"
  obs.value: 5.00
- smiles.data: "Cc1ccc(N(C)C(=O)CCCC2CCN(S(=O)(=O)C3(C(=O)NO)CCOCC3)CC2)cc1"
  test.system: "MMP-14 (Homo sapiens)"
  inequality.sign: "<"
  obs.value: 5.00
- smiles.data: "CCN1CCC(C(=O)NO)(S(=O)(=O)N2CCC(c3ccc(CCC(F)(F)C(F)(F)F)cn3)CC2)CC1"
  test.system: "MMP-14 (Homo sapiens)"
  inequality.sign: "<"
  obs.value: 5.00
- smiles.data: "Cc1ccc(N2CCC(C(=O)NO)(S(=O)(=O)N3CCC(c4ccc(CCC(F)(F)C(F)(F)F)cn4)CC3)CC2)cn1"
  test.system: "MMP-14 (Homo sapiens)"
  inequality.sign: "="
  obs.value: 5.72
- smiles.data: "O=C(NO)C1(S(=O)(=O)N2CCN(c3ccc(CCC(F)(F)C(F)(F)F)cn3)CC2)CCOCC1"
  test.system: "MMP-14 (Homo sapiens)"
  inequality.sign: "="
  obs.value: 5.47
- smiles.data: "CN(C(=O)CCCCC1CCN(S(=O)(=O)C2(C(=O)NO)CCOCC2)CC1)c1ccc(F)cc1"
  test.system: "MMP-14 (Homo sapiens)"
  inequality.sign: "<"
  obs.value: 5.00
- smiles.data: "O=C(NO)C1(S(=O)(=O)N2CCC(c3ccc(COCC(F)(F)F)cn3)CC2)CCOCC1"
  test.system: "MMP-14 (Homo sapiens)"
  inequality.sign: "<"
  obs.value: 5.00
